# Test system: A2780
# Measurement Description: Cytotoxicity against human A2780 cells
# Assay type: functional, cell-based
The source made the active and inactive calls. The rule behind the calls is not given here.
Experimental Readout: Activity

Molecule | Observed Result
C=CCC1=C[C@]2(O)C[C@H](C(C)(C)O)OC2=CC1=O | inactive
C=CC[C@@]12C=C(C[C@H](O)C(C)(C)O)C(=O)C=C1OCO2 | inactive
C=CC[C@@H]1C[C@]2(O)C[C@H](C(C)(C)O)OC2=CC1=O | inactive
C=CC[C@H]1C[C@]2(O)C[C@H](C(C)(C)O)OC2=CC1=O | inactive

###

Could you please report measured Activity for the items listed next?
# Measurement Description: Antiinflammatory activity in rat PMNC assessed as inhibition of platelet activating factor-induced beta-glucuronidase release at 10 uM treated 15 mins before PAF challenge
# Assay type: functional
# Design: scale not given: the % may be the effect or the level left
Kindly provide the numeric value in % only, without the unit symbol.

Problem: Which Activity reading was recorded for the compound C=CC[C@]1(C[C@H](O)C(C)(C)O)C=C2OCOC2=CC1=O ?
Result: 20.1

Problem: Which Activity reading was recorded for the compound C=CC[C@H]1C[C@]2(O)C[C@H](C(C)(C)O)OC2=CC1=O ?
Result: 18

Problem: Which Activity reading was recorded for the compound C=CCC1=C[C@]2(O)C[C@H](C(C)(C)O)OC2=CC1=O ?
Result: 4.8

Problem: Which Activity reading was recorded for the compound CO[C@]12OC[C@@]3(C)[C@@]4(O)CC[C@@H](COC(=O)c5ccccc5)[C@]4(C[C@@H](O1)[C@@]3(O)CO)[C@H]2O ?
Result: 15.8

Problem: Which Activity reading was recorded for the compound C=CCC1=C[C@]2(O)C[C@@H](O)C(C)(C)[C@H](C1=O)C2=O ?
Result: -7.7

Problem: Which Activity reading was recorded for the compound C=CC[C@@H]1C[C@]2(O)C[C@H](C(C)(C)O)OC2=CC1=O ?
Result: -9.4

Problem: Which Activity reading was recorded for the compound C[C@@H]1CC[C@@]2(O)[C@]13C[C@@H](OC(=O)[C@@H]3O)[C@@]1(O)C(=O)OC[C@@]21C ?
Result: 22.4

Problem: Which Activity reading was recorded for the compound C=CC[C@@]12C=C(C[C@H](O)C(C)(C)O)C(=O)C=C1OCO2 ?
Result: 33.8
